Measured IC50 of individual entries
- assay remarks: Inhibition of N-type calcium channel in human IMR-32 cells by FLIPR assay
- Format: cell-based

| compound | IC50, µM |
| --- | --- |
| CC(C)C1c2cc(F)ccc2CCN1C(=O)CNCC1(O)CCCCC1 (stereo not given) | 1.3 |
| O=C(CNCC1(O)CCCCC1)N1CCc2ccccc2C1C1CCOCC1 (stereo not given) | 4.1 |
| Cc1ccc2c(c1)C(C(C)C)N(C(=O)CNCC1(O)CCCCC1)CC2 (stereo not given) | 1.4 |
| Cc1cccc2c1CCN(C(=O)CNCC1(O)CCCCC1)C2C(C)C (stereo not given) | 1.4 |
| CC1c2ccccc2CCN1C(=O)CNCC1(O)CCCCC1 (stereo not given) | 2.9 |
| CC(C)(C)C1c2ccccc2CCN1C(=O)CNCC1(O)CCCCC1 (stereo not given) | 0.8 |
| COc1ccc2c(c1)CCN(C(=O)CNCC1(O)CCCCC1)[C@H]2C(C)C | 2.1 |
| COc1ccc2c(c1)CCN(C(=O)CNCC1(O)CCCCC1)C2C(C)C (stereo not given) | 1.3 |
| COc1ccc2c(c1)CCN(C(=O)CNCC1(O)CCCCC1)[C@@H]2C(C)C | 1.9 |
| COc1cccc2c1C(C(C)C)N(C(=O)CNCC1(O)CCCCC1)CC2 (stereo not given) | 1.4 |

###

- measured on: Cytochrome P450 2D6 (Homo sapiens)
- Sequence (P10635 whole entry): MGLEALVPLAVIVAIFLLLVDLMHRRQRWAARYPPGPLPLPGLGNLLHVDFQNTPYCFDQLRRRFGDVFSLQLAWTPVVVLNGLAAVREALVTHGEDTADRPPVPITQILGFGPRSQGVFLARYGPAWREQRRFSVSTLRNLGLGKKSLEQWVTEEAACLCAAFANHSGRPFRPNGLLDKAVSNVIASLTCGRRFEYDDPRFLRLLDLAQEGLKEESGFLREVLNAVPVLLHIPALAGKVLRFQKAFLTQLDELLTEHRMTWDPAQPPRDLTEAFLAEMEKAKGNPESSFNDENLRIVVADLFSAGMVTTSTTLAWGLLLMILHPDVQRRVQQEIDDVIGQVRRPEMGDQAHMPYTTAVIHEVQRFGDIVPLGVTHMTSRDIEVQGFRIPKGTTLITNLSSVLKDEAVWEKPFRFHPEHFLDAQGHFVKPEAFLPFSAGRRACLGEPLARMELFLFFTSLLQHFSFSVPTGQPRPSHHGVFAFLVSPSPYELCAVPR
- assay remarks: Inhibition of CYP2D6 in human liver microsomes using dextromethorphan as substrate preincubated for 30 mins before substrate addition measured after 20 mins by LC-MS/MS analysis

| molecule | measured on | IC50 |
| --- | --- | --- |
| O=C(CNCC1(O)CCCCC1)N1CCc2ccccc2[C@@H]1c1ccccc1 | Cytochrome P450 2D6 (Homo sapiens) | < 390 nM |
| Cc1cccc2c1CCN(C(=O)CNCC1(O)CCCCC1)C2C(C)C (stereo not drawn) | Cytochrome P450 2D6 (Homo sapiens) | < 780 nM |
| CC(C)(C)C1c2ccccc2CCN1C(=O)CNCC1(O)CCCCC1 (stereo not drawn) | Cytochrome P450 2D6 (Homo sapiens) | < 780 nM |
